# Tested on: MCF7 breast
# procedure details: NCI-60 one-dose screen, 48 h (100 = growth as untreated, 0 = no growth, -100 = all killed)
# condition notes: 10 µM unless noted
The panel holds about 83,000 compounds, 20% with a hit somewhere; the sample as a whole holds those more often.
assay metric: growth (%)
Number in %, nothing else.

Q: Requested read-out: growth. Entry: CC(C)N(CCOC(=O)Nc1ccccc1Cl)C(C)C
A: 104

Q: growth lookup needed for Cc1cc(NS(=O)(=O)c2ccccc2)c(OS(=O)(=O)c2ccccc2)cc1C , thanks.
A: 93.7

Q: I have this compound here, C=C(CNCCc1ccc(O)cc1)[C@@H]1CC[C@]2(COC3CCCCO3)CC[C@]3(C)[C@H](CC[C@@H]4[C@@]5(C)CCC(NCCO)C(C)(C)[C@@H]5CC[C@]43C)[C@@H]12 (some centres undefined) , and I need its recorded growth.
A: -84.3

Q: Give the measured growth of C=CC(=O)N[C@@H](Cc1ccc(-c2cc(Cl)cc(Cl)c2)cc1)[C@@H](O)[C@H](O)C(=O)O .
A: 93.5

----------
I'd appreciate it if you could supply growth values for the items below.
# Tested on: CCRF-CEM leukemia
# procedure details: NCI-60 one-dose screen, 48 h (100 = growth as untreated, 0 = no growth, -100 = all killed)
# condition notes: 10 µM unless noted
The panel holds about 83,000 compounds, 20% with a hit somewhere; the sample as a whole holds those more often. The source made the active and inactive calls. How the source made its calls: active means growth percent below 10; inactive means the rest.

Q: So what does the record say about growth for C#CC[C@H](N)C(=O)O ?
A: 98.6% [20 µM] (inactive)

Q: Consider the compound N=C(N)c1ccc(-c2ccc(-c3ccc(Cl)cc3Cl)o2)cc1 and give its measured growth.
A: 0.678% (active)

Q: Which growth value is on record for CNC(=O)c1c(NC(=O)c2ccc(C(C)(C)C)cc2)sc2c1CCC(=O)C2 ?
A: 1.79% (active)

Q: # growth lookup, item O=C(c1ccccc1)c1ccc(Cl)c([N+](=O)[O-])c1
A: 13.5% (inactive)

Q: For the compound CN1C[C@@H](c2ccc(Cl)cc2)[C@]2(NC(=S)N(c3ccc(F)c(Cl)c3)C2=O)[C@@]12C(=O)NC1C=CC(Cl)=C[C@H]12 (some centres undefined) , what growth is on record?
A: 6.69% (active)

Q: Look up growth for this compound: COc1ccc(/C(C)=C(\c2ccc(Cl)cc2)c2ccc(OCCN3CCCCC3)cc2)cc1F
A: 31% (inactive)

Q: Which growth value is on record for O=C(/C=C/C12c3ccccc3C(c3ccccc31)C1C(=O)NC(=O)C12)c1ccccc1 (centres undefined) ?
A: 12.6% (inactive)

Q: Which value of growth has been reported for O=C(Nc1ccccc1Cl)OCCN1CCOCC1 in the records?
A: 86% (inactive)

Q: Tell me the measured growth of Cc1nc(Nc2ccc(NC(=S)Nc3ccccc3)cc2)nc2nc(Nc3cccc(Cl)c3)[nH]c(=O)c12 , please.
A: 81.2% (inactive)

Q: Could you tell me which growth is on file for CCCCN1CCN(c2ccc3nc(-c4ccc5nc(-c6cc(OC)c(OC)c(OC)c6)[nH]c5c4)[nH]c3c2)CC1 ?
A: 25.1% (inactive)

Q: Any idea what growth was measured for CNC=O ?
A: 103% (inactive)

Q: Need growth of O=C1N(c2ccccc2)C(=S)N[C@]12[C@H](c1ccccc1)C1CCCN1[C@]21C(=O)NC2C=CC(Cl)=C[C@H]21 (some centres undefined) , thanks.
A: 77.6% (inactive)

Q: Give its growth value. Item: O=C(c1ccccc1)c1ccc(N2C(=O)C3C4c5ccccc5C(/C=C/C(=O)c5ccccn5)(c5ccccc54)C3C2=O)cc1 (centres undefined)
A: 11.1% (inactive)

Q: // returns reported growth for input O=C1CC(c2ccc3c(c2)OCO3)Nc2cc3c(cc21)OCO3 (centres undefined)
A: 9.73% (active)

Q: Tell me the measured growth of CCN(CC)S(=O)(=O)c1ccc(O)c(NC(=O)c2[nH]c(C)c(C(C)=O)c2CCc2ccc(Cl)cc2)c1 , please.
A: 62% (inactive)

Q: Name the reported growth value associated with the compound c1ccc([P+](CCCc2n(Cc3ccc4ccccc4c3)c3ccccc3[n+]2Cc2ccc3ccccc3c2)(c2ccccc2)c2ccccc2)cc1
A: 43.2% (inactive)

Q: Could you share which growth value was measured for CCN1CCN(c2ccc(Nc3cc(-c4cccnc4Nc4c(Cl)c(OC)cc(OC)c4Cl)ncn3)cc2)CC1 ?
A: 31.6% (inactive)

Q: Fill in the blank: the reported growth of CC/C=C/[C@@H]1C=C[C@@H]2CCC[C@H]2[C@@H]1CC[C@H](O)[C@H](C)N is ____.
A: -44% (active)

Q: Which growth reading was recorded for the compound CCn1c(Sc2nnc(Nc3ccccc3)s2)nc2c1c(=O)n(C)c(=O)n2C ?
A: 117% (inactive)

----------
# System: PC-3 prostate
# procedure details: NCI-60 one-dose screen, 48 h
# condition notes: 10 µM unless noted
About 83,000 compounds went through this panel and 20% of them were active in at least one assay; those are over-represented in the sample as a whole. Calls of active or inactive are those of the source. The calls were made as follows: active = growth percent below 10; inactive = the rest.
# output must be one of active, inactive

Q: What call does the record list for Cn1cc(-c2ccc3ncc(-c4ccc(CC(=O)Nc5cc(C(C)(C)C)nn5C)cc4)cc3c2)cn1 ?
A: active

Q: Give the logged outcome of this assay for the following compound: Nc1nc(Nc2ccc(Cl)cc2)nn1S(=O)(=O)c1ccc(-c2ccc(F)cc2)cc1
A: inactive

Q: # outcome recorded in this test, key = Nc1nc(I)c2ncn(C3OC(CO)C(O)C3O)c2n1 (stereo not given)
A: inactive

Q: Please share the test call associated with CN1C[C@@H](c2ccc(Cl)cc2)[C@]2(NC(=S)N(c3ccc(F)c(Cl)c3)C2=O)[C@@]12C(=O)NC1C=CC(Cl)=C[C@H]12 (stereo not given in full) .
A: active

Q: Any idea what this test logged for O=S(=O)(NCCNc1cc(-c2c(-c3cccc(O)c3)nc3sccn23)ccn1)c1ccc(Br)cc1 ?
A: inactive

Q: What outcome does the record of this test show for c1ccc2[nH]c(SSc3nc4ncncc4[nH]3)nc2c1 ?
A: inactive

Q: Just curious, what result did CC(C)n1nc(C#Cc2cccc(O)c2)c2c(N)ncnc21 get here?
A: active

Q: What is the recorded call for this compound in the test? N#Cc1cnn2c(-c3ccc(Cl)cc3)nc(NCCc3ccccc3)nc12
A: inactive

Q: Recorded call for COc1ccc(-n2nnc(C(=O)NCCc3c[nH]c4ccc(F)cc34)c2C)cc1 ?
A: inactive

Q: Could you check what this test reported for CC(C)(C)CC(C)(C)Nc1c(-c2ccc(-c3ccccc3)cc2)nc2cnccn12 ?
A: inactive

----------
Give growth for every item shown.
# System: UACC-62 melanoma
# procedure details: NCI-60 one-dose screen, 48 h (100 = growth as untreated, 0 = no growth, -100 = all killed)
# condition notes: 10 µM unless noted
Compounds without any hit were thinned out: in the full panel of roughly 83,000, 20% have a hit.
Respond with the bare value in %.

Q: Record request: growth value, item CNC(=O)c1c(NC(=O)c2ccc(C(C)(C)C)cc2)sc2c1CCC(=O)C2
A: 0.579

Q: Which growth value is on record for COc1ccc(/C=C(\C#N)n2nnc3ccccc32)cc1 ?
A: 21.4

Q: Find the recorded growth belonging to CCCCOc1nc2ccc(Cl)cc2cc1/C=C/C(=O)/C=C1/CC(c2cc3cc(Cl)ccc3nc2OCCCC)Nc2ccccc2N1 (stereo not drawn) and report it.
A: 89.1

Q: Sample CCCN1CCN(c2ccc3nc(-c4ccc5nc(-c6ccc(OCC)c(OCC)c6)[nH]c5c4)[nH]c3c2)CC1 — what was its growth?
A: -85

Q: Entry COc1cc(-c2ccc(N=Nc3c(O)c(C(=O)Nc4ccccc4OC)cc4ccccc34)c(OC)c2)ccc1N=Nc1c(O)c(C(=O)Nc2ccccc2OC)cc2ccccc12 has what growth?
A: 101

Q: Which growth value is on record for COc1cc(NC(=O)c2cccc(-c3cc(=O)c4c(OC)c(OC)c(OC)cc4o3)c2)cc(OC)c1OC ?
A: 50.5

Q: Look at this compound and give its reported growth. C=C1C(=O)O[C@H]2[C@H]1CC/C(COC(=O)/C=C\C(=O)NCc1ccc(Cn3c(=O)sn(-c4ccc(C#N)cc4)c3=O)cc1)=C\CC[C@@]1(C)O[C@@H]21
A: -99.4

Q: Recorded growth of COc1ccc(Oc2nc(Nc3ccc(N4CCCCC4)nc3)ncc2NC(=O)c2cc(OC)cc(OC)c2)cc1 , please.
A: 18.8

----------
# Tested on: RXF 393 renal
# procedure details: NCI-60 one-dose screen, 48 h (100 = growth as untreated, 0 = no growth, -100 = all killed)
# condition notes: 10 µM unless noted
About 83,000 compounds went through this panel and 20% of them were active in at least one assay; those are over-represented in the sample as a whole.
For each entry below, report its growth value.
Only the number, expressed in %, is required.

Q: Find the recorded growth belonging to N=C(N)c1ccc(-c2ccc(/C=C/c3ccccc3)s2)cc1 and report it.
A: 39.2

Q: Report growth for COc1cc(C(=O)/C=C/c2c(-c3ccc(F)cc3)nc3ncccn23)cc(OC)c1OC please.
A: 13.6

Q: Given CCNCCNc1cc(-c2ccc(F)cc2)c(C#N)c2nc3ccccc3n12 , state its recorded growth.
A: 29.7

Q: Which growth reading was recorded for the molecule COc1ccc2cc(-c3ccc(C(=O)NN)c(C)n3)ccc2c1 ?
A: 113

Q: Would you kindly share the measured growth for C=C1c2c(C)nn(-c3ccc(NC(C)=O)cc3)c2N(C)C23CC1C1(C)c4c(C)nn(-c5ccc(NC(C)=O)cc5)c4N(C)C(C)(CC12)C3 (stereo not given) ?
A: 29.9

Q: Look up growth for this molecule: CCN(CC)CCOC(=O)Nc1ccccc1Cl
A: 117

Q: # growth lookup, item O=c1ccn(C2OC(F)(CO)C(O)C2F)c(=O)[nH]1 (stereo not given)
A: 141

Q: Which measured growth value corresponds to CN(C)CCC(O)(Cc1ccccc1)c1ccccc1 (stereo not given) ?
A: 117

Q: Could you tell me which growth is on file for Cc1nn(-c2ccccc2)c2c1C(c1ccc([N+](=O)[O-])cc1)C(C#N)=C(N)O2 (stereo not given) ?
A: 99.2

Q: Item Cc1nc(Nc2ccc(NC(=S)Nc3ccccc3)cc2)nc2nc(Nc3cccc(Cl)c3)[nH]c(=O)c12 has what recorded growth?
A: -12.9
